Each record here notes measured Inh (PKA).
test system: PRKACA-PRKAR2A interaction (SmBiT-PRKACA / LgBiT-PRKAR2A), protein kinase A; set-up: NanoLuc complementation counter-screen in cell extract, PRKACA with PRKAR2A, loss of luminescence, detects NanoLuc interference; conditions: counter-screen for NanoLuc interference; 0.5 h, 20 µM; inhibitor
Where a name gives a salt, the structure may show the parent alone.

compound	units_text	Inh (PKA)
Cc1ccc2c(c1)c1c(n2CCc2ccc(C)nc2)CCN(C)C1 [UM0142307:01, Latrepirdine]	%	3.431
CN(C)CCCNC(=O)c1ccc(-c2cc(O)c3ncccc3c2)cc1	%	3.619
C[C@@H](CN1CC(=O)NC(=O)C1)N1CC(=O)NC(=O)C1 [UM0141403:01, Dexrazoxane HCl (ICRF-187, ADR-529)]	%	2.168
O=C(O)CC(O)(CC(=O)O)C(=O)O [UM0121350:03, Lithium Citrate]	%	-1.116
COc1cc2nccc(Oc3ccc(NC(=O)Nc4ccc(F)cc4F)c(F)c3)c2cc1OC	%	5.997
Cc1cc(Nc2cc(N3CCN(C)CC3)nc(Sc3ccc(NC(=O)C4CC4)cc3)n2)n[nH]1	%	9.039
CCN1CCN(c2ccc(Nc3cc(N(C)C(=O)Nc4c(Cl)c(OC)cc(OC)c4Cl)ncn3)cc2)CC1	%	-0.1399

Source: paper PMC9995496
